# Test system: CCRIS mutagenicity, Ames/micronucleus/aberration tests
# protocolDetails: CCRIS mutagenicity studies
# conditionParameters: Test System: AMES SALMONELLA TYPHIMURIUM; Strain/Indicator: TA1535; Metabolic Activation: HAMSTER, LIVER, S-9, AROCLOR 1254 (10%); Method: PREINCUBATION
# Excerpt: The CCRIS database contains chemical records with carcinogenicity, mutagenicity, tumor promotion, and tumor inhibition test results. It was developed by the National Cancer Institute (NCI). Data are derived from studies cited in primary journals, current awareness tools, NCI reports, and other sources. Test results have been reviewed by experts in carcinogenesis and mutagenesis. CCRIS provides historical information from the years 1985 - 2011. It is no longer updated. […]
The source made the active and inactive calls. How the calls were made is not given here.
Returns: one label drawn from 1 (yes) for active, 0 (no) for inactive

[[record]]
compound = "Cc1ccc(NC(N)=O)cc1"
assignedlabel = "0 (no)"

[[record]]
compound = "CCN(CC)c1ccc2c(-c3ccccc3C(=O)O)c3ccc(=[N+](CC)CC)cc-3oc2c1"
assignedlabel = "0 (no)"

[[record]]
compound = "Cc1c(N)cccc1N"
assignedlabel = "1 (yes)"


Kindly provide the recorded test outcome for the following compound: "Cc1cc(-c2ccc(N)c(C)c2)ccc1N"
0 (no)

Call for entry CC(CCl)OP(=O)(OC(C)CCl)OC(C)CCl (stereo not drawn) :
0 (no)

How was "COCCOCCOC" classified in this test?
0 (no)

For "COc1c(C(C)(C)C)cc([N+](=O)[O-])c(C)c1[N+](=O)[O-]" , which call appears in the assay record?
0 (no)

Entry CC(=O)C(N=Nc1ccc(-c2ccc(N=NC(C(C)=O)C(=O)Nc3ccccc3)c(Cl)c2)cc1Cl)C(=O)Nc1ccccc1 (stereo not drawn) : call = ?
0 (no)

Entry "O=C(Cl)c1ccccc1[N+](=O)[O-]" : call = ?
0 (no)

Hi, do you know how "CC1CCCC1" came out in this test?
0 (no)

----------
# Tested on: CCRIS mutagenicity, Ames/micronucleus/aberration tests
# protocolDetails: CCRIS mutagenicity studies
# conditionParameters: Test System: AMES SALMONELLA TYPHIMURIUM; Strain/Indicator: TA100; Metabolic Activation: S-9; Method: PREINCUBATION
Activity calls are given as the source filed them. No rule for the calls is given here.
Pick one: YES for active, NO for inactive

These solved cases illustrate the format of a correct answer.
[[record]]
querysmiles = "CCOc1cccc2cccnc12"
assignedlabel = "NO"

[[record]]
querysmiles = "Nc1cc2nc3ccccc3nc2cc1O"
assignedlabel = "NO"


// return assay outcome for "CCc1cccc2cccnc12"
YES

Fill in: this test's call for "Clc1cccc2cccnc12" is ___
NO

----------
# System: CCRIS mutagenicity, Ames/micronucleus/aberration tests
# protocolDetails: CCRIS mutagenicity studies
# conditionParameters: Test System: AMES SALMONELLA TYPHIMURIUM; Strain/Indicator: TA100; Metabolic Activation: HAMSTER, LIVER, S-9, AROCLOR 1254 (30%); Method: PREINCUBATION
# Source text: The CCRIS database contains chemical records with carcinogenicity, mutagenicity, tumor promotion, and tumor inhibition test results. It was developed by the National Cancer Institute (NCI). Data are derived from studies cited in primary journals, current awareness tools, NCI reports, and other sources. Test results have been reviewed by experts in carcinogenesis and mutagenesis. CCRIS provides historical information from the years 1985 - 2011. It is no longer updated. […]
Activity calls are given as the source filed them. The rule behind the calls is not given here.
Valid outcomes are listed here; reply with one: 1.0 = active, 0.0 = inactive

What classification did "CCc1cc(C(N)=S)ccn1" end up with in this test?
0.0

What was the test verdict on "C=CC(=O)OC" ?
0.0

# outcome recorded in this test, key = "COC(=O)c1ccccc1O"
0.0

Identify the outcome logged in this assay for the compound shown: ClC1=C(Cl)C2(Cl)C3C(Cl)C(Cl)CC3C1(Cl)C2(Cl)Cl (centres undefined)
1.0

How did this test come out for "[O]=[Cr](=[O])([OH])[O][Cr](=[O])(=[O])[OH]" ?
1.0

What is the recorded call for this compound in the test? "Nc1ccc(N)c2ccccc12"
1.0

Record request — test call for "CCCSC(=O)Cl"
0.0

Hello, I am checking results. What call was entered for "Clc1cccc2ccccc12" ?
1.0
